Test system: HS 578T breast
Assay: NCI tumour cell line growth inhibition, 48 h
Where a SMILES comes first, the peptide text is derived from it. The star is where a group is joined. OSu = O=C1CCC(=O)N1O*
Task for the reader: assign each of the following compounds its reported TGI.

Please supply TGI for each of the following items, keeping them in order.
1. COC(=O)[C@]1(C)CCC[C@@]2(C)C1CC[C@@]13C=C(C(C)C)[C@@H](CC1=O)CC23 (stereo not given in full)
2. COC(=O)c1ccc(Cc2cc(Cc3ccc(C(=O)OC)cc3)cc(Cc3ccc(C(=O)OC)cc3)c2)cc1
3. O=C1OCC2=C1C(c1cccc(Br)c1)c1cc3c(cc1N2CCO)OCCO3 (stereo not given)
4. CCCCCCCCCCSC(=N)N (tested in a mixture with another compound)
5. O=S(=O)(O)c1cc(N=Nc2c(O)ccc3ccccc23)cc2c(S(=O)(=O)O)cccc12
6. CCOC(=O)C(=[N+]=[N-])C(=O)CN1C(=O)c2ccccc2C1=O
7. NCCCCC(NC(=O)C(N)Cc1ccc(O)cc1)C(=O)NC(CCCCN)C(=O)NC(CCCCN)C(=O)ON1C(=O)CCC1=O (stereo not given) (H-YKKK-OSu; configuration not given here)

RESULT:
43.9 µM
> 25 µM
> 21.3 µM
29.5 µM
> 100 µM
> 100 µM
> 100 µM

Batch request: TGI per item, same order as input.
1. O=C1CSC(=S)N1/N=C/c1ccc(Cl)c([N+](=O)[O-])c1
2. Cc1cc(OC(=O)Nc2cccc3ccccc23)c(C(C)C)cc1C(=S)Nc1ccccc1
3. Cc1ccc(-[n+]2cc([O-])on2)cc1

RESULT:
1. > 100 µM
2. 55.2 µM
3. > 100 µM

---

Tested on: EKVX NSCLC
Test: NCI tumour cell line growth inhibition, 48 h
quantity kind: TGI

CC(C)=C[C@H]1C[C@H](C)[C@H]2CC[C@H](C)c3c2c1c(C)c1ncoc31 :: 30 µM
C=C(C)C12OC1[C@@]1(C)C(=CC2=O)CCC(O)[C@@H]1C (some centres undefined) :: 6.69 µM
O=C(NC1CCCCC1)NS(=O)(=O)c1ccc(N2N=C3c4ccccc4CC3C2c2ccc(Cl)cc2)cc1 (centres undefined) :: 22.8 µM
CN(C)C(=S)/N=c1\ssc(=S)n1C1CCCCC1 :: > 100 µM
C=C(C)C(=O)O[C@@H]1C[C@@]2(C)O[C@@H]2C[C@H](O)/C(C)=C/[C@H]2OC(=O)C(=C)[C@@H]21 :: > 100 µM
COc1c2ccccc2c(OC)c2[nH]c(=O)ccc12 :: > 100 µM
C/C(CN1C(=O)c2ccccc2C1=O)=N\NS(=O)(=O)c1ccc(Cl)cc1 :: > 100 µM
CCOC(=O)CCCSCCCC(=O)CCCSCCCC(=O)OCC :: > 100 µM

In the following, a different molecule is considered.
QUERY: Kindly indicate its recorded TGI. Item: `N#CCCC[Si]12OCCN(CCO1)CCO2`
RESULT: > 100 µM

---

Tested on: PC-3 prostate
Assay: NCI tumour cell line growth inhibition, 48 h
Would you kindly list TGI for each of these molecules?

Answered cases to consult:
O=C1NC2(CCN(CCc3ccccc3)CC2)Oc2ccccc21 :: > 100 µM
NC(Cc1ccccc1)C(=O)NC(Cc1ccccc1)NC(=O)C(Cc1c[nH]c2ccccc12)C(=O)O (stereo unspecified) :: > 100 µM
N#C/C(N)=C(\C#N)NC=NCCO :: > 100 µM
COc1ccc(C(SCCO)(c2ccccc2)c2ccc(OC)cc2)cc1 :: 28.9 µM
COc1ccc(C(C)NNC(=O)c2ccncc2)cc1OC (stereo unspecified) :: > 100 µM

Would you kindly look at the next entry?
QUERY: Give the reported TGI for this molecule. CC1=C/C(=N\NC(N)=S)C(C(O)(C(F)(F)F)C(F)(F)F)C(C)(C)C1 (stereo unspecified)
RESULT: > 10 µM

From: PubChem BioAssay (NCI)
